Provide the reported AC50 of each item.
- Assay Target: Acetylcholinesterase (Homo sapiens); also: assay procedure not described here
- Sequence (P22303 whole entry): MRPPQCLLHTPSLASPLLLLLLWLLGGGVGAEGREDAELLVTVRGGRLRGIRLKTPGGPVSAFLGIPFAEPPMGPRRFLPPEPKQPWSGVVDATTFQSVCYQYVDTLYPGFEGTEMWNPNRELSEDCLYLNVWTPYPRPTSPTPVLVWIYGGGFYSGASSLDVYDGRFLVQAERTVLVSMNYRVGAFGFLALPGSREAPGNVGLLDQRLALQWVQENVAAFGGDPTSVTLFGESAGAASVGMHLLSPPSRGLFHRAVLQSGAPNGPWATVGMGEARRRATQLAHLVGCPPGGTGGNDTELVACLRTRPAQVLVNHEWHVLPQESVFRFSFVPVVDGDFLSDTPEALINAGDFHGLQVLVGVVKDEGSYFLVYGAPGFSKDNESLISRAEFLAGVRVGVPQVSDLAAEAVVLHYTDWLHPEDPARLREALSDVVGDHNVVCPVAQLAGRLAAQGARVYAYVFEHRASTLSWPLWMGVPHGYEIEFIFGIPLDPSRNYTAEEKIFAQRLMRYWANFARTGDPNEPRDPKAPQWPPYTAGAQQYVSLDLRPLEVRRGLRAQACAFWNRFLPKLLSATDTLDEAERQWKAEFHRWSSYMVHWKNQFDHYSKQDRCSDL
- Format: functional

Known results for compounds:
[[record]]
compound = "C(=N\\NC1=NCCN1)/c1c2ccccc2c(/C=N/NC2=NCCN2)c2ccccc12"
quantity = "AC50"
result = "3.88 µM"

[[record]]
compound = "Cc1c(O)cccc1C(=O)N[C@@H](CSc1ccccc1)[C@H](O)CN1C[C@H]2CCCC[C@H]2C[C@H]1C(=O)NC(C)(C)C"
quantity = "AC50"
result = "> 30 µM"

[[record]]
compound = "CS(=O)(=O)Nc1cc2occ(NC=O)c(=O)c2cc1Oc1ccccc1"
quantity = "AC50"
result = "> 30 µM"

[[record]]
compound = "O=C(COc1ccc(Cl)cc1)N1CCN(Cc2ccc3c(c2)OCO3)CC1 [FIPEXIDE]"
quantity = "AC50"
result = "> 30 µM"

[[record]]
compound = "O=C1CC[C@@]2(O)[C@H]3Cc4ccc(O)c5c4[C@@]2(CCN3CC2CC2)[C@H]1O5 [NALTREXONE]"
quantity = "AC50"
result = "> 30 µM"

[[record]]
compound = "CCc1ccc(CCOc2ccc(CC3SC(=O)NC3=O)cc2)nc1 (stereo not drawn)"
quantity = "AC50"
result = "> 30 µM"


Would you mind giving AC50 for every compound in the list below?
1. CO[C@@]12[C@H](COC(N)=O)C3=C(C(=O)C(C)=C(N)C3=O)N1C[C@@H]1N[C@@H]12
2. CCOc1ccc(/C=C2\NCCc3cc(OCC)c(OCC)cc32)cc1OCC

> 30 µM
26.1 µM

###

Quick record: AC50, Sodium-dependent serotonin transporter (Homo sapiens, UniProt P31645).

// batch mode: one AC50 value per listed entry
1. OCCN1CCN(CCCN2c3ccccc3C=Cc3ccccc32)CC1 [OPIPRAMOL]
2. CC(C(=O)O)c1ccc(N2CC=CC2)c(Cl)c1 (centres undefined) [PIRPROFEN]
3. O=C1CN=C(c2ccccc2)c2cc(Cl)ccc2N1CC(F)(F)F [HALAZEPAM]
4. NC(=O)c1ncn([C@@H]2O[C@H](CO)[C@@H](O)[C@H]2O)c1O [MIZORIBINE]

1: > 30 µM; 2: > 10 µM; 3: > 30 µM; 4: > 30 µM

Can you give me AC50 for all of these, one by one?
1. O=C1NCCN1CCN1CCC(c2cn(-c3ccc(F)cc3)c3ccc(Cl)cc23)CC1 [SERTINDOLE]
2. C1COC(NC(C2CC2)C2CC2)=N1 [RILMENIDINE]
3. CN1CCC2=C(C1)C(c1ccccc1)c1ccccc12 (centres undefined) [PHENINDAMINE]
4. CC(C)[N+](C)(CCC(C(N)=O)(c1ccccc1)c1ccccc1)C(C)C [ISOPROPAMIDE]
5. COc1ccc2c(c1)C(=O)N(CCc1ccc(S(=O)(=O)NC(=O)NC3CCCCC3)cc1)C(=O)C2(C)C [GLIQUIDONE]

3.4 µM
> 30 µM
> 30 µM
> 10 µM
> 30 µM

###

# AC50 per entry for UniProtKB P47871
# Sequence (P47871 whole entry): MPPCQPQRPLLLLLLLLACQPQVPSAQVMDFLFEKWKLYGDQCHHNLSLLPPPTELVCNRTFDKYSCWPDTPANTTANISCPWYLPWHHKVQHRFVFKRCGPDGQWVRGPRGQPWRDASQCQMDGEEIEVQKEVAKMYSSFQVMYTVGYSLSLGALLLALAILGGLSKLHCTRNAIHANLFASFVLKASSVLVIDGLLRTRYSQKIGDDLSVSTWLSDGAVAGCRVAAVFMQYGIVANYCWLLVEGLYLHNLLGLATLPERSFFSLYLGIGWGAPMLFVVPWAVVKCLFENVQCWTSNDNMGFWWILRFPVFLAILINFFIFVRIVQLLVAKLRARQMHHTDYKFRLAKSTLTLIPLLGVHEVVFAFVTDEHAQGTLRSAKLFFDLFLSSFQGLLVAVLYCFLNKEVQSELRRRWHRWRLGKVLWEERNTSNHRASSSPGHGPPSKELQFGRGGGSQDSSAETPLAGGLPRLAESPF

Would you please look over these solved cases?
[[record]]
molecule = "CN(CCOc1ccc(NS(C)(=O)=O)cc1)CCc1ccc(NS(C)(=O)=O)cc1 [DOFETILIDE]"
assay_target = "UniProtKB P47871"
result = "> 30 µM"

[[record]]
molecule = "CC(C)NCC(O)COc1ccc(COCCOC(C)C)cc1 (stereo unspecified) [BISOPROLOL]"
assay_target = "UniProtKB P47871"
result = "> 30 µM"

[[record]]
molecule = "NC(N)=Nc1nc(CSCCC(N)=NS(N)(=O)=O)cs1 [FAMOTIDINE]"
assay_target = "UniProtKB P47871"
result = "> 30 µM"

[[record]]
molecule = "CC(C(=O)O)c1ccc(N2CC=CC2)c(Cl)c1 (stereo unspecified) [PIRPROFEN]"
assay_target = "UniProtKB P47871"
result = "> 30 µM"

[[record]]
molecule = "COc1ccc2cccc(CCNC(C)=O)c2c1 [AGOMELATINE]"
assay_target = "UniProtKB P47871"
result = "> 30 µM"

[[record]]
molecule = "CCN(CC)CCNC(=O)c1cc(Cl)c(N)cc1OC [METOCLOPRAMIDE]"
assay_target = "UniProtKB P47871"
result = "> 30 µM"


Each molecule below has a recorded value; state its AC50.
1. Cc1cc(-c2ccccc2)nnc1NCCN1CCOCC1 [MINAPRINE]
2. CN(C)C(=O)OC1N=C(c2ccccc2)c2cc(Cl)ccc2N(C)C1=O (stereo unspecified) [CAMAZEPAM]
3. C[C@H]1O[C@H](O[C@H]2[C@H](O)[C@@H](O)[C@@H](O[C@H]3[C@H](O)[C@@H](O)C(O)O[C@@H]3CO)O[C@@H]2CO)[C@H](O)[C@@H](O)[C@@H]1N[C@H]1C=C(CO)[C@@H](O)[C@H](O)[C@H]1O (stereo partly specified) [ACARBOSE]

> 30 µM
> 30 µM
> 30 µM

Need AC50 for each of these molecules.
1. O=C(CCCCCCC(=O)Nc1ccccc1)NO [VORINOSTAT]
2. Cc1c(C(=O)Nc2ccc(N3C[C@@H](C)O[C@@H](C)C3)nc2)cccc1-c1ccc(OC(F)(F)F)cc1 [SONIDEGIB]

1. > 10 µM
2. > 30 µM

Give me AC50 for each of these molecules, listed below.
1. O=C(O)CCn1c2c(c3ccccc31)C[C@H](NS(=O)(=O)c1ccc(F)cc1)CC2 [RAMATROBAN]
2. CC(N)Cc1ccccc1 (stereo unspecified) [AMPHETAMINE]
3. O=C(Nc1ccccc1)OCC(CN1CCCCC1)OC(=O)Nc1ccccc1 (stereo unspecified) [DIPERODON]
4. COc1cc(Nc2c(C#N)cnc3cc(OCCCN4CCN(C)CC4)c(OC)cc23)c(Cl)cc1Cl [BOSUTINIB]
5. CCCCCN(C)CCC(O)(P(=O)(O)O)P(=O)(O)O [IBANDRONIC ACID]
6. O=C(O)CCCc1ccccc1 [PHENYLBUTANOIC ACID]

> 10 µM
> 30 µM
> 30 µM
> 30 µM
> 30 µM
> 30 µM

Fill in AC50 for each of the 3 molecules listed.
1. CCNC(C)Cc1cccc(C(F)(F)F)c1 (stereo unspecified) [FENFLURAMINE]
2. NS(=O)(=O)c1cc2c(cc1Cl)NCNS2(=O)=O [HYDROCHLOROTHIAZIDE]
3. CN(C)CCCN1c2ccccc2Sc2ccccc21 [PROMAZINE]

1. > 30 µM
2. > 30 µM
3. > 30 µM
